# System: NCI-H460
# Assay Info: NCI tumour cell line growth inhibition, 48 h
Active and inactive are the calls of the source. Cut-off read from the data, not from the text of the source: active = GI50 up to about 1.1 µM and inactive = higher.
Entries and their GI50 values follow.

>  <Compound>
CCC1OC2C(CC=C(C)C)=C3OC(C)(O)C(C)(CC)C(OC(=O)c4ccccc4)C3=C3OC(=O)C=C1C32 (centres undefined)

>  <Target Or System>
NCI-H460

>  <GI50>
46.9 µM (inactive)

$$$$

What GI50 value was documented for this compound, CC(=O)n1[nH]c(=O)n(-c2ccc(Cl)cc2)c1=O ?
> 100 µM (inactive)

Ok, now CC(C)(NC1=NCCO1)c1ccccc1
> 100 µM (inactive)

Item: C=C1C(=O)OC2/C=C(CO)/C=C\C3OC3(C)CC(OC(=O)/C(C)=C/COC(C)=O)C12 (centres undefined)
5.69 µM (inactive)

One more compound: CC1(C)CC(=O)C2=C(C1)NC1=C(C2)C(=O)CC(C)(C)C1
> 100 µM (inactive)

Another compound: Cc1ccc(NC2=CC(=O)C(NO)c3ccccc32)cc1 (centres undefined)
3.22 µM (inactive)

Another compound to look at: C#CC[N+](CCO)(CCO)CCCCCCCCCCCCCCCCCC
9.53 µM (inactive)

Do the same for N=C(N)SCc1cccc(-c2nc3ccccc3c(=O)o2)c1 please
> 100 µM (inactive)

Also COC(=O)[C@H](C)[C@@H]1CC[C@](C)(CCC2=C(C)CCCC2(C)C)OO1 , if possible.
> 25 µM (inactive)

NC(CSC1(c2ccc(Cl)cc2)c2ccccc2-c2ccccc21)C(=O)O (centres undefined) , same question.
18.1 µM (inactive)

What do you have for C/C(=C\CBr)CCC(Br)C(C)(C)Cl (centres undefined) ?
> 100 µM (inactive)

// repeat for CNC(=O)OCc1cc2ccncc2c2c1[nH]c1ccccc12 and report
> 20.7 µM (inactive)

Also, Cc1nc2ccccc2c(=O)n1NC(=O)c1ccc(N)cc1 please.
> 100 µM (inactive)
